# measured-on: Aldehyde dehydrogenase 1A1 (Homo sapiens)
# protocol-summary: qHTS Assay for Inhibitors of Aldehyde Dehydrogenase 1 (ALDH1A1)
# conditions: Purified ALDH1A1, NADH fluorescence, propionaldehyde substrate; series mostly up to 75.3 µM
Hit rate of the full screen: of about 220,000 compounds, about 16,000 (7.3%) were called active. Another 25% or so got no clear call; they are omitted. The call rests on the fitted dose curve; in most records, active means well fitted inhibition curve with a large enough effect (not every such curve was filed as active); inconclusive means small, poorly fitted or top-dose-only effect, or another doubt; inactive means no such curve, though single readings can be large or run the other way. For the sample, actives were picked, then their nearest neighbours and some compounds at random.
Possible outcomes: yes (active), no (inactive)

COc1ccc(NC(=O)c2ccccc2[N+](=O)[O-])cc1OC: no
CCc1ccccc1N1C(=O)C2C3CC(=O)C(c4ccccc43)C2C1=O (stereo unspecified): no
Cc1csc(NC(=O)CSc2ccc(-c3ccc(F)cc3)nn2)n1: no
CCOC(=O)CSc1nc2c(c(=O)n(C)c(=O)n2C)n1Cc1ccccc1F: yes
CCOc1ccc2nc(NC(=O)CSc3nc4c(c(=O)n(C)c(=O)n4C)n3CC)sc2c1: no
CCCCNc1nc2c(c(=O)n(C)c(=O)n2C)n1Cc1cccc(OC)c1: no
Cc1ccc(O)c(NC(=S)NC(=O)COc2ccc(Br)cc2)c1: no
O=C(N1CCCCC1)N1CCN(C(=O)N2CCCCC2)CC1: no
COCc1cc(=O)[nH]c(-c2ccc(C(F)(F)F)cc2)n1: no
Cn1nnnc1SCc1cc(=O)[nH]c2ccccc12: no
CC(C)OCCCNc1nc2c(c(=O)n(Cc3ccccc3F)c(=O)n2C)n1C: no

====

# measured-on: Aldehyde dehydrogenase 1A1 (Homo sapiens)
# protocol-summary: qHTS Assay for Inhibitors of Aldehyde Dehydrogenase 1 (ALDH1A1)
# conditions: Purified ALDH1A1, NADH fluorescence, propionaldehyde substrate; series mostly up to 75.3 µM
The campaign covered roughly 220,000 compounds. About 16,000 (7.3%) were called active. Inconclusive results (about 25%) are left out. Calls come from the whole dose curve; as a rule, active = well fitted inhibition curve with a large enough effect (not every such curve was filed as active); inconclusive = small, poorly fitted or top-dose-only effect, or another doubt; inactive = no such curve, though single readings can be large or run the other way. Only a selection was taken, and actives are over-represented in it overall.
Possible outcomes: label 1 = active, label 0 = inactive

O=C(Nc1ccccc1N1CCN(C(=O)c2ccccc2)CC1)c1ccc2c(c1)OCO2: label 1
COC(=O)c1nc(NC(=O)c2ccc(F)cc2)n[nH]1: label 0
O=C(Oc1ccc([N+](=O)[O-])cc1)c1ccc(Cl)c(S(=O)(=O)N2CCCCC2)c1: label 1
Cc1ccc(C(=O)NCC(=O)O)cc1S(=O)(=O)N1CCCCC1: label 0

====

# measured-on: Aldehyde dehydrogenase 1A1 (Homo sapiens)
# protocol-summary: qHTS Assay for Inhibitors of Aldehyde Dehydrogenase 1 (ALDH1A1)
# conditions: Purified ALDH1A1, NADH fluorescence, propionaldehyde substrate; series mostly up to 75.3 µM
The campaign covered roughly 220,000 compounds. About 16,000 (7.3%) were called active. Not shown: some 25% with an inconclusive outcome. The call rests on the fitted dose curve; in most records, active means well fitted inhibition curve with a large enough effect (not every such curve was filed as active); inconclusive means small, poorly fitted or top-dose-only effect, or another doubt; inactive means no such curve, though single readings can be large or run the other way. The sample as a whole holds a higher share of actives than the screen did.
Possible outcomes: true (active), false (inactive)

Cc1nc([N+](=O)[O-])nn1C12CC3CC(CC(Br)(C3)C1)C2: true
COc1ccccc1-c1nnc(SCC(=O)Nc2cc(C)on2)o1: false
COC(=O)C1=C(C)Nc2ncnn2C1c1cccnc1 (stereo not given): false
Nc1c(C(=O)NCc2ccccc2)nnn1Cc1cccc(Cl)c1: false
C/C(=N/NC(=O)C1COc2ccccc2O1)c1ccco1 (stereo not given): false
CCCCOc1ccc(C(=O)N/C(=C/C=C/c2ccccc2)C(=O)N2CCOCC2)cc1: true
CCOc1ccccc1-n1c(SCC(=O)N2CCCC2)nnc1-c1ccoc1C: false
OCC1(Cc2ccccc2C(F)(F)F)CCN(Cc2cccc3cnccc23)CC1: false
CC1CC(C)(C)NC(=S)N1CCC(=O)N1CCN(Cc2ccccc2)CC1 (stereo not given): false
O=C(N/N=C\c1cc(Br)c(Br)o1)C1COc2ccccc2O1 (stereo not given): true
CCOC(=O)N1CCN(C(=O)c2cn(C)c3ccc(S(=O)(=O)N4CCCC4)cc3c2=O)CC1: false
Cc1ncn(C23CC4CC(CC(O)(C4)C2)C3)n1: false
CC1=C(C(=O)OC2CCCCC2)C(c2cccnc2)n2ncnc2N1 (stereo not given): true
Cc1cc(C)n2nc(C(=O)N3CCN(Cc4ccc5c(c4)OCO5)CC3)nc2n1: false
Cc1ccc(C(=O)N/N=C\c2cc(Br)c(Br)o2)cn1: false
CC1CCCCC1NC(=O)COC(=O)Cc1ccc(Br)cc1 (stereo not given): false
COCC(=O)Nc1nnc(COc2ccccc2)s1: false
CC(C)(C)c1nnc(N/N=C/c2ccc(O)cc2)n(N)c1=O: false
CN(CC(=O)NC1CCCC1)S(=O)(=O)c1cnc[nH]1: false
COc1cccc(OC)c1C(=O)OCC(=O)/C(C#N)=C(\C)N: false

====

# measured-on: Aldehyde dehydrogenase 1A1 (Homo sapiens)
# protocol-summary: qHTS Assay for Inhibitors of Aldehyde Dehydrogenase 1 (ALDH1A1)
# conditions: Purified ALDH1A1, NADH fluorescence, propionaldehyde substrate; series mostly up to 75.3 µM
Hit rate of the full screen: of about 220,000 compounds, about 16,000 (7.3%) were called active. Another 25% or so got no clear call; they are omitted. Calls come from the whole dose curve; as a rule, active = well fitted inhibition curve with a large enough effect (not every such curve was filed as active); inconclusive = small, poorly fitted or top-dose-only effect, or another doubt; inactive = no such curve, though single readings can be large or run the other way. Many of the other results were omitted from the sample, so actives are more common in it than they were.
Possible outcomes: Yes for active, No for inactive

Cc1ccc2c(c1)N(C(=O)CCC(=O)N1CCc3ccccc3C1)CCO2: Yes
CC(C)N(C)C(=O)CCc1nnc(CCc2c[nH]c3ccccc23)o1: No
CC(=O)Nc1ccc(Nc2c([N+](=O)[O-])cc(S(C)(=O)=O)cc2[N+](=O)[O-])cc1: No
COC1(C2=NCCN2)COc2ccccc2O1 (stereo unspecified): No
CSc1nnc2c(n1)OC(c1cn(C)c3ccccc13)N(C(C)=O)c1ccccc1-2 (stereo unspecified): Yes
CCOc1ccc(NC(=O)CN(C)CC(=O)NC(C)c2ccccc2)cc1OCC (stereo unspecified): No
CCCN(C(=O)CSc1nnnn1C)c1c(N)n(Cc2ccccc2)c(=O)[nH]c1=O: No
COC(=O)NNC1=CC(=O)CC(C)(C)C1: No
CCC(=O)N1CCC(C(N)=O)(N2CCCCC2)CC1: No
S=C(Nc1cccc(Br)c1)N1CCn2cccc2C1c1cccnc1 (stereo unspecified): No
CCOc1ccc(C(CC(=O)O)NC(=O)C23CC4CC(CC(C4)C2)C3)cc1OC (stereo unspecified): No
Cc1cccc(-n2c(Cc3cc(=O)[nH]c(=O)[nH]3)nnc2SCC(=O)Nc2cccc(C(F)(F)F)c2)c1: No
CCOC(=O)Cc1cc(=O)[nH]c(=O)[nH]1: No
COC(=O)c1c(NC(=O)CN(c2ccc(C)c(C)c2)S(C)(=O)=O)sc2c1CCCC2: No
Cc1ccc(S(=O)(=O)N(C)CC(=O)N2CCc3ccccc32)cc1: No
Cn1c(CCC(=O)OCC(=O)NCc2ccccc2Cl)nc(=O)c2ccccc21: No
O=C(CC1NCCNC1=O)Nc1cc(Cl)cc(Cl)c1 (stereo unspecified): No
CC(C)[C@H](NC(=O)c1ccc(F)cc1)C(=O)OCC(=O)NC(=O)c1cccn1C: No
CS(=O)(=O)N1CCC(C(=O)N2CCN(c3ccccc3)CC2)CC1: No
OCCC1CN(Cc2cccc(OC3CCCC3)c2)CCN1Cc1ccsc1 (stereo unspecified): No
CC1(C)O[C@@H]2C[C@@H]3[C@H]4C[C@@H](F)C5=CC(=O)C=C[C@]5(C)[C@@]4(F)[C@@H](O)C[C@]3(C)[C@]2(C(=O)CO)O1: No
CCOC(=O)c1sc(=S)n2c1[nH]c(=O)c1ccc(C(=O)OC)cc12: Yes
O=[N+]([O-])c1cc(S(=O)(=O)CCCN2CCOCC2)ccc1F: No
CCn1cc(C(=O)Nc2cc(C)ccc2C)c(=O)c2ccc(C)nc21: No
C/C(=N\N)c1c(-c2ccccc2)c2cc(Br)ccc2[nH]c1=O: No
Clc1ccc2nc(CSc3ccccc3)cn2c1: No
CCOC(=O)C1=C(C)Nc2sc(C(=O)c3ccc(Br)cc3)c(N)c2C1c1ccc(C(=O)OC)cc1 (stereo unspecified): No
CCN(CCn1cccn1)Cc1nc(-c2ccc(C(=O)OC)cc2)no1: No
COc1ccccc1N1CCN(CC(=O)NCCc2ccc(S(N)(=O)=O)cc2)CC1: No
COc1cc(C(=O)N[C@@H](C)C(=O)NCc2ccco2)cc(OC)c1OC: No
CCn1c(CNC(=O)c2ccco2)nnc1SCC(=O)Nc1cccc(F)c1: No

====

# measured-on: Aldehyde dehydrogenase 1A1 (Homo sapiens)
# protocol-summary: qHTS Assay for Inhibitors of Aldehyde Dehydrogenase 1 (ALDH1A1)
# conditions: Purified ALDH1A1, NADH fluorescence, propionaldehyde substrate; series mostly up to 75.3 µM
In all, about 220,000 compounds went through this assay and about 16,000 (7.3%) were called active. Inconclusive results (about 25%) are left out. The call rests on the fitted dose curve; in most records, active means well fitted inhibition curve with a large enough effect (not every such curve was filed as active); inconclusive means small, poorly fitted or top-dose-only effect, or another doubt; inactive means no such curve, though single readings can be large or run the other way. Many of the other results were omitted from the sample, so actives are more common in it than they were.
Possible outcomes: YES for active, NO for inactive

CC1=C(/C=C/C(C)=C/C=C/C(C)=C/C=C/C=C(C)/C=C/C=C(C)/C=C/C(=O)[C@]2(C)C[C@@H](O)CC2(C)C)C(C)(C)C[C@H](O)C1: NO
COc1ccc(Cl)cc1C(=O)NNC(=S)NC1CCCC1: NO
Cc1c(S(=O)(=O)O)ccc(N=Nc2c(O)c(C(=O)O)cc3ccccc23)c1Cl: YES
COc1cc(/C=N/O)cc(Br)c1OCc1cccc(Cl)c1: NO
O=C(CCC1CCCN(C(=O)Cc2ccc(F)cc2)C1)N1CCN(c2ccccn2)CC1 (centres undefined): NO
COc1cc(/C=C/CO)cc(OC)c1O[C@@H]1O[C@H](CO)[C@@H](O)[C@H](O)[C@H]1O: NO
O=C(/C=N/O)Nc1ccccc1: NO
CS(=O)(=O)c1ccc2nc(NC(=O)CN3CCCCCC3)sc2c1: NO
O=[N+]([O-])c1ccccc1/C=N/n1c(COc2ccccc2)n[nH]c1=S: YES
